Cited source: the supplement of paper PMC9170038

# apparent KD of MS2 coat protein listing for each entry below
System: MS2 coat protein
Assay: apparent KD of MS2 coat protein; designed switch direction (-1 OFF switch, 1 ON switch): -1; higher = weaker reporter binding
Details: input ligand: none
Value expressed in nM; do not type the unit.

A selection of reference data follows.
GCCCAGUUAGGAUAUACAUGUCACGUCCUAACGGUCGAAGGACAUGAGGAUCACCCAUGUAGAAGGGACCGGCA [Onraonbe] (Eterna round: R97, puzzle: Exclusion 2)	21.2
UCUUAUUGAGGAUAUACAGAUUAUUACAUGAGGAUCACCCAUGUUCUUCAAUGUAUAUAUGUAGAAGGCAGAGGAU [Mat - Exclusion 5 - JL Mod - D12] (Eterna round: R97, puzzle: Exclusion 5)	68.6
ACAUGAGGAUCACCCAUGUCCGUCUGGUCUGUCUCGGCUGUCGAGGAUAUAGCUCGGUAUCCGCGCUAGAAGGCGGGAGUCGGU [Aenatbe mod 93] (Eterna round: R96, puzzle: Exclusion NG 3)	88.5

// below: apparent KD of MS2 coat protein requested for another sequence
Q: GET /values?readout=apparent KD of MS2 coat protein&item= AAUUCGCAAGCGAGAUCCCACAUGAGGAUCACCCAUGUGCUCGUCUUAUAAGGUACUGUGACAAAAGUCACGGUACC [Mat - Sensor, turn-off var - Eli Mod - D84] (Eterna round: R97, puzzle: Sensor, turn-off variant 1)
Ans: 13.2
